Assay: NCI Yeast Anticancer Drug Screen. Data for the cln2 rad14 strain (AID 165);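 also: 0% = growth equal to vehicle treated cultures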
Settings: S. cerevisiae cln2 rad14 strain, hits give high values; at 50.0 µM unless noted
This is part of a sample that, as a whole, favours compounds with a hit. Of some 79,000 tested, about 15% had one in any assay.

molecule	outputUnit	growth inhibition
CC(O)CNc1nc(N)[nH]c(=O)c1[N+](=O)[O-] (stereo not drawn)	%	-41.5
Cc1ccc(S(=O)(=O)N2CCC(CCl)N(S(=O)(=O)c3ccc(C)cc3)CC2CCl)cc1 (stereo not drawn)	%	-9.05
CC(C)CCOC=O	%	21.6
O=[N+]([O-])c1cccc(C2=NN(c3ccccc3)C3c4cc(Br)ccc4OCC23)c1 (stereo not drawn)	%	2.45
CC(C)CC(C(=O)NC1CCCCC1)N1C(=O)c2ccccc2C1=O (stereo not drawn)	%	-8.2
Cc1c2cc[n+](C)cc2c(C)c2c1oc1ccccc12	%	55.9
CCN(CC)CCOC(=O)c1cc2ccccc2s1	%	2.85
CCCCCCCC/C=C\CCCCCCCC(=O)NC(C)(C)C(=O)O	%	62.6

----------
Test: NCI Yeast Anticancer Drug Screen. Data for the rad50 strain (AID 155);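 also: 0% = growth of vehicle-only cultures of the same strain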
Settings: S. cerevisiae rad50 strain growth inhibition, hits give high values; at 50.0 µM unless noted
Compounds without any hit were thinned out: in the full panel of roughly 79,000, 15% have a hit.
reportedEndpoint: growth inhibition (%)

molecule	reportedEndpoint	quantitativeReadout
Cc1cc(O)c(C)c(C)c1O	growth inhibition	-4.1
CC(=O)OCC(OC(C)=O)C(OC(C)=O)C(OC(C)=O)C(OC(C)=O)C(=O)NC1CCc2ccccc2C1 (centres undefined)	growth inhibition	24.8
CC1=C(C(=O)Nc2ccccc2)C(c2ccc3c(c2)OCO3)C(C(=O)Nc2ccccc2)=C(C)N1	growth inhibition	38.3
OC1(C#CC#CC2(O)CCCCC2)CCCCC1	growth inhibition	12.9
CN(C)c1ccc(C(c2ccc(N(C)C)cc2)c2ccc([N+](=O)[O-])cc2)cc1	growth inhibition	-3.75
C=CC(=O)OCCOCCCC	growth inhibition	8.75
CS(=O)(=O)OCC(Br)C(Br)COS(C)(=O)=O (centres undefined)	growth inhibition	2.8
CC1=C(C(=O)Nc2ccccc2)C(c2ccccc2Cl)C(C(=O)Nc2ccccc2)=C(C)N1	growth inhibition	14.8
O=C1OC(c2ccccc2)=C2CCC3CCCCN1C23 (centres undefined)	growth inhibition	-2.15

----------
Assay: NCI Yeast Anticancer Drug Screen. Data for the rad50 strain (AID 155);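 also: 0% = growth of vehicle-only cultures of the same strain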
Details: S. cerevisiae rad50 strain growth inhibition, hits give high values; at 50.0 µM unless noted
Compounds without any hit were thinned out: in the full panel of roughly 79,000, 15% have a hit. Activity calls are given as the source filed them. No stated cut-off is given here; in the data, active means growth inhibition above about 70%; inactive means the rest.

molecule	growth inhibition
Nc1cccc(B(O)O)c1	-16.6% (inactive)
O=C(O)c1cccc(OCCO)c1	-10% (inactive)
COc1ccc(CCl)cc1OCc1ccccc1	-33.7% (inactive)
C#CCN(N=O)C(=O)NCCCCC(NC(=O)OCc1ccccc1)C(=O)OCc1ccccc1 (centres undefined)	-6.65% (inactive)
C/C(=N\NC(=S)Nc1nccs1)c1ccccn1	96.7% (active)
O=C1NC(=S)S/C1=C/C=C/c1ccccc1	-21.4% (inactive)
CCCCCCCc1nc(CCCCCCC)nc(CCCCCCC)n1	1.05% (inactive)
COC(=O)[C@@H]1Cc2cc(O)c(O)cc2C2(CCN(C)CC2)O1	-21.5% (inactive)
ClCCOC1CCCCO1 (centres undefined)	-19% (inactive)
CCc1cccc(CC)c1NC(=S)N/C=C(\C#N)S(=O)(=O)c1ccc(C)cc1	-4.8% (inactive)
C(=Nc1ccc(N=Cc2ccco2)cc1)c1ccco1	10.8% (inactive)
CCS(=O)(=O)CC(O)CS(=O)(=O)CC	6.5% (inactive)
CCOC(=O)CC(c1ccccc1)C(C)(C(=O)OCC)C(=O)OCC (centres undefined)	-18.3% (inactive)
Cc1nc2ncnc(N)c2[nH]1	3.55% (inactive)
